Experiment: Measurement of log P values by HPLC on reversed phase columns (EEC directive 79/831 Annex V.A8)
Type: physicochemical
Settings: method marked [a]
value type: logP

Use the examples below as a reference point.
# compound, logP
data = [
    ("CC1CC2(CCCCC2)c2cccc(NC(=S)c3c(C(F)F)nn(C)c3Cl)c21 (stereo not drawn)", "5.01[a]"),
    ("CCCCON=C1CCc2c(NC(=O)c3c(C(F)F)nn(C)c3Cl)cccc21", "4.24[a]"),
    ("CC1CC2(CC2)c2cccc(NC(=O)c3c(C(F)F)nn(C)c3Cl)c21 (stereo not drawn)", "3.83[a]"),
    ("Cn1nc(C(F)F)c(C(=O)Nc2cccc3c2CC(C)(C)C3)c1F", "3.64[a]"),
    ("Cn1nc(C(F)F)c(C(=O)Nc2cccc3c2CC(C)(C)C3)c1Br", "3.87[a]"),
]

The compound listed as CCC1Cc2c(NC(=S)c3c(C(F)F)nn(C)c3F)cccc2C1(C)C (stereo not drawn) has a reported logP of 4.46[a]

The compound listed as CC1CC(CC(C)(C)C)c2cccc(NC(=S)c3c(C(F)F)nn(C)c3Cl)c21 (stereo not drawn) has a reported logP of 5.31[a]

The compound listed as CC1CC(C)(C)c2c(Cl)ccc(NC(=O)c3c(C(F)F)nn(C)c3Cl)c21 (stereo not drawn) has a reported logP of 4.6[a];

The compound listed as CC1Cc2c(NC(=O)c3c(C(F)F)nn(C)c3Br)cccc2C1(C)C (stereo not drawn) has a reported logP of 4.16[a]

---

Catalogue of Eff. % values
Test system: Uromyces appendiculatus
Experiment: In vivo preventive test on Uromyces appendiculatus (bean rust)
Settings: dose 100 ppm; bean plants sprayed 24 h before contamination; grading 11 days after contamination
Quick reminder: number only, in %, skip the unit.

Use the examples below as a reference point.
# molecule, value type, unit tag, experimental result
records = [
    ("CC1CC2(CCCCC2)c2cccc(NC(=O)c3c(C(F)F)nn(C)c3F)c21 (stereo not drawn) [Example 107]", "Eff. %", "%", 100),
    ("CC(C)C1Cc2c(NC(=S)c3c(C(F)F)nn(C)c3F)cccc2C1(C)C (stereo not drawn) [Example 95]", "Eff. %", "%", 100),
    ("CCC1Cc2c(NC(=S)c3c(C(F)F)nn(C)c3F)cccc2C1(C)C (stereo not drawn) [Example 106]", "Eff. %", "%", 94),
    ("CC(C)CC1CC(C)c2c(NC(=O)c3c(C(F)F)nn(C)c3Cl)cccc21 (stereo not drawn) [Example 99]", "Eff. %", "%", 100),
]

The molecule listed as CC1CC2(CCCC2)c2cccc(NC(=O)c3c(C(F)F)nn(C)c3Cl)c21 (stereo not drawn) [Example 111] has a reported Eff. % of 100

---

Catalogue of Eff. % values
Tested on: Puccinia recondita
Assay: In vivo preventive test on Puccinia recondita (brown rust on wheat)
Conditions: dose 500 ppm; wheat plants sprayed 24 h before contamination; grading 12 days after contamination
Protocol: Plants, used as controls, are treated with the mixture of acetone/tween/DMSO/water not containing the active material. After 24 hours, the plants are contaminated by spraying the leaves with an aqueous suspension of Puccinia recondita spores (100 000 spores per ml). […] Grading (% of efficacy) is carried out 12 days after the contamination, in comparison with the control plants.
Give the value; after it, write the unit.

Use the examples below as a reference point.
# molecule, value type, experimental result
records = [
    ("CC1CC(C(C)C)c2cccc(NC(=O)c3c(C(F)F)nn(C)c3Cl)c21 (centres unmarked)", "Eff. %", "97%"),
    ("CCC1Cc2c(NC(=O)c3c(C(F)F)nn(C)c3F)cccc2C1(C)C (centres unmarked)", "Eff. %", "100%"),
    ("Cn1nc(C(F)F)c(C(=O)Nc2cccc3c2CCC3C(C)(C)C)c1F (centres unmarked)", "Eff. %", "98%"),
    ("CC(C)C1Cc2cccc(NC(=O)c3c(C(F)F)nn(C)c3Cl)c2C1C (centres unmarked) [Example 47]", "Eff. %", "83%"),
]

The molecule listed as CCCON=C1CC(C)c2c(NC(=O)c3c(C(F)F)nn(C)c3Cl)cccc21 (centres unmarked) has a reported Eff. % of 81%

---

Catalogue of Eff. % values
System: Uromyces appendiculatus
Test: In vivo preventive test on Uromyces appendiculatus (bean rust)
Conditions: dose 500 ppm; bean plants sprayed 24 h before contamination; grading 11 days after contamination
Give the value; after it, write the unit.

# compound, Eff. %
rows = [
    ("CC1CC(CC(C)(C)C)c2cccc(NC(=S)c3c(C(F)F)nn(C)c3F)c21 (centres unmarked)", "100%"),
    ("CCON=C1CCc2c(NC(=O)c3c(C(F)F)nn(C)c3Cl)cccc21", "100%"),
    ("CC1c2cccc(NC(=O)c3c(C(F)F)nn(C)c3Cl)c2CC1(C)C (centres unmarked)", "100%"),
]

The compound listed as CC1CC2(CC2)c2cccc(NC(=S)c3c(C(F)F)nn(C)c3F)c21 (centres unmarked) has a reported Eff. % of 100%

The compound listed as CC(C)C1Cc2cccc(NC(=O)c3c(C(F)F)nn(C)c3Cl)c2C1C (centres unmarked) [Example 48] has a reported Eff. % of 100%

The compound listed as CC1CC(C)(C)c2c(F)ccc(NC(=O)c3c(C(F)F)nn(C)c3Cl)c21 (centres unmarked) has a reported Eff. % of 100%

The compound listed as CC(C)CC1CC(C)c2c(NC(=O)c3c(C(F)F)nn(C)c3F)cccc21 (centres unmarked) has a reported Eff. % of 100%

The compound listed as CCC1(CC)Cc2c(NC(=O)c3c(C(F)F)nn(C)c3Cl)cccc2C1C (centres unmarked) has a reported Eff. % of 100%

The compound listed as CC1CC(C)(C)c2cccc(NC(=O)c3c(C(F)F)nn(C)c3Br)c21 (centres unmarked) has a reported Eff. % of 100%

The compound listed as CC1CC2(CC2)c2cccc(NC(=S)c3c(C(F)F)nn(C)c3Cl)c21 (centres unmarked) has a reported Eff. % of 100%

---

Test system: Puccinia recondita
Assay: In vivo preventive test on Puccinia recondita (brown rust on wheat)
Conditions: dose 500 ppm; wheat plants sprayed 24 h before contamination; grading 12 days after contamination
Catalogue of Eff. % values
Quick reminder: number only, in %, skip the unit.

# compound, unit tag, Eff. %
measured = [
    ("Cn1nc(C(F)F)c(C(=O)Nc2cccc3c2CC2CCCCC32)c1Cl (stereo not drawn)", "%", 94),
    ("CC1c2cccc(NC(=O)c3c(C(F)F)nn(C)c3F)c2CC12CCCC2 (stereo not drawn)", "%", 100),
    ("CCON=C1CC(C)c2c(NC(=O)c3c(C(F)F)nn(C)c3F)cccc21 (stereo not drawn)", "%", 88),
    ("Cn1nc(C(F)F)c(C(=O)Nc2cccc3c2CC(C)(C)C3)c1Br", "%", 98),
    ("CCCON=C1CC(C)c2c(NC(=O)c3c(C(F)F)nn(C)c3F)cccc21 (stereo not drawn)", "%", 94),
    ("CC(C)CC1CC(C)c2c(NC(=O)c3c(C(F)F)nn(C)c3F)cccc21 (stereo not drawn)", "%", 98),
    ("CC1CC(CC(C)(C)C)c2cccc(NC(=S)c3c(C(F)F)nn(C)c3Cl)c21 (stereo not drawn)", "%", 98),
    ("Cn1nc(C(F)F)c(C(=O)Nc2cccc3c2CCC32CC2)c1F", "%", 98),
    ("CCC1(CC)Cc2c(NC(=O)c3c(C(F)F)nn(C)c3Cl)cccc2C1C (stereo not drawn)", "%", 98),
    ("CC1Cc2c(NC(=O)c3c(C(F)F)nn(C)c3F)cccc2C1(C)C (stereo not drawn)", "%", 100),
]

The compound listed as CC1CC2(CC2)c2cccc(NC(=O)c3c(C(F)F)nn(C)c3Cl)c21 (stereo not drawn) has a reported Eff. % of 98

The compound listed as Cn1nc(C(F)F)c(C(=S)Nc2cccc3c2CCC3C(C)(C)C)c1F (stereo not drawn) has a reported Eff. % of 100

---

Catalogue of logP values
Test: Measurement of log P values by HPLC on reversed phase columns (EEC directive 79/831 Annex V.A8)
Assay type: physicochemical
Settings: method [a]: LC-MS at pH 2.7, 0.1% formic acid in water / acetonitrile, gradient 10% to 95% acetonitrile

Use the examples below as a reference point.
# compound, experimental result
measured = [
    ("CC1CC(C)(C)c2c(C3CC3)ccc(N)c21 (stereo not drawn)", "2.81[a]"),
    ("CC1c2c(N)cccc2C(C)(C)C1C (stereo not drawn)", "2.28[a]"),
    ("CC1CC(C(C)C)c2cccc(Br)c21 (stereo not drawn)", "5.31[a]"),
    ("CCON=C1CCc2c(N)cccc21.Cl", "1.75[a]"),
    ("CC(C)C1Cc2cccc(N)c2C1C (mixture of isomers)", "2.9[a]"),
    ("CCCON=C1CCc2c(Br)cccc21 (single isomer, unassigned) [III-b-22]", "5.56[a]"),
]

The compound listed as Cc1ccc(N)c2c1C(C)(C)CC2C (stereo not drawn) has a reported logP of 2.16[a];

The compound listed as CC1CC2(CCCC2)c2cccc(N)c21 (racemic) has a reported logP of 2.86[a]

The compound listed as CC1CC2(CC2)c2cccc(Br)c21 (stereo not drawn) has a reported logP of 5.28[a]

The compound listed as CC(C)C1Cc2c(Br)cccc2C1(C)C (stereo not drawn) has a reported logP of 6.7[a]

The compound listed as CC(C)C1Cc2cccc(N)c2C1 (stereo not drawn) has a reported logP of 2.25[a]
